Measured values drawn from patent US12459912B2 for this set.

target: ADRA1A (Adrenergic Receptor on α1A) (Homo sapiens, UniProt P35348); test: ADRA1A/Calcium Flux; assay type: cell-based; settings: EC50 (μM), agonist
Sequence (P35348 whole entry): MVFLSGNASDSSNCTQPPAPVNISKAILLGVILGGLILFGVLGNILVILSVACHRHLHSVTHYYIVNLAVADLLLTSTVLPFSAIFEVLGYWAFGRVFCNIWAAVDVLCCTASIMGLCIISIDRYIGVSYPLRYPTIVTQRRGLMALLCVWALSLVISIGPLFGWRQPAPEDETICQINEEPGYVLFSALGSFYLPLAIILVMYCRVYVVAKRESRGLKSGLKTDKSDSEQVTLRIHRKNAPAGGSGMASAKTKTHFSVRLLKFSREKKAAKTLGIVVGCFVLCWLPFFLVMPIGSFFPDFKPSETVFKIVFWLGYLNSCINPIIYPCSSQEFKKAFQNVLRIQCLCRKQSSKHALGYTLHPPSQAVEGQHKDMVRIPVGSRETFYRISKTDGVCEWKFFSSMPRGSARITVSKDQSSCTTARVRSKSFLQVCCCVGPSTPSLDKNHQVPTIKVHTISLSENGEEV
Measured metric: EC50

Req: Report EC50, nothing else, for this compound: CNC(C)Cc1ccc2ccsc2c1 (stereo not shown) [drawing 522]
Resp: > 10 µM

----------
target: VEGFR2 (Vascular endothelial growth factor receptor 2 (KDR tyrosine kinase)) (Homo sapiens); experiment: biochemical
Sequence (P35968 20-1356): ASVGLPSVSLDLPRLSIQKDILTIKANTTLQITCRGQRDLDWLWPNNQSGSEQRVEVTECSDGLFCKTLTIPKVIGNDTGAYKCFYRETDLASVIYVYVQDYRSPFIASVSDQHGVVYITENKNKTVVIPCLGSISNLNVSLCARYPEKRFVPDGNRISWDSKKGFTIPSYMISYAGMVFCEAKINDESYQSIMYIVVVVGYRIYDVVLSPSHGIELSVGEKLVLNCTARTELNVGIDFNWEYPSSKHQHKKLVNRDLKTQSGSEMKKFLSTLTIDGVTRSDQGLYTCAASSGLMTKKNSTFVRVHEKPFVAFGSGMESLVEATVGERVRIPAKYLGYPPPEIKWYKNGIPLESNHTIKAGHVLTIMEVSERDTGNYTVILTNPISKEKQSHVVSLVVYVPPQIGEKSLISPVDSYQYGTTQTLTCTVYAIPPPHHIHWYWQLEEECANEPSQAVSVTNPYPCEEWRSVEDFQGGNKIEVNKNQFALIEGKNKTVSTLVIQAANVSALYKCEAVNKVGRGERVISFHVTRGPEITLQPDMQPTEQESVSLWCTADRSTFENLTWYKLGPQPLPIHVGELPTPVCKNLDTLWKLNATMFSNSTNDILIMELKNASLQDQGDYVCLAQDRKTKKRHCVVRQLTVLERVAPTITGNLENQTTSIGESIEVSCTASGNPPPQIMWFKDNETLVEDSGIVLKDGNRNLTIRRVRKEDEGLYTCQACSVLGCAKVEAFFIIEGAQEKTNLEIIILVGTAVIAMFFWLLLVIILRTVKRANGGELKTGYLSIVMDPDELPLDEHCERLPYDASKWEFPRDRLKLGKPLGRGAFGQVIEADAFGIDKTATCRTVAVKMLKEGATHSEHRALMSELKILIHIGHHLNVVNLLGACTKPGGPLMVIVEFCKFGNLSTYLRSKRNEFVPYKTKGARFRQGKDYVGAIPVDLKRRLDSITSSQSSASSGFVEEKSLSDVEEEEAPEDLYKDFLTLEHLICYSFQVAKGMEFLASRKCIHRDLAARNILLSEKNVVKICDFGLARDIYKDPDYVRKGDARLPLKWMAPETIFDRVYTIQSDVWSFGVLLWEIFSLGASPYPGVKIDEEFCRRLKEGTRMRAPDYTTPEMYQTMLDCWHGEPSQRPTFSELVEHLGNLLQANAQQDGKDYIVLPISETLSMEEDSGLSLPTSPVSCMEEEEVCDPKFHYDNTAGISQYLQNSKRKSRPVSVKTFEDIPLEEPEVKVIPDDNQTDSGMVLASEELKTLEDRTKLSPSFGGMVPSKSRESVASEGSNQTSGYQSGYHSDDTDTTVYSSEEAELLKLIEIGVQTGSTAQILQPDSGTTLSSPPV
Measured metric: EC50

Req: Report EC50, nothing else, for this compound: CNC(C)Cc1ccc2ccsc2c1 (stereo not shown) [drawing 522]
Resp: > 10 µM

----------
target: UniProt P41595; experiment: 5-HT2B/Calcium Flux; type: cell-based; details: EC50 (μM), antagonist
Sequence (P41595 whole entry): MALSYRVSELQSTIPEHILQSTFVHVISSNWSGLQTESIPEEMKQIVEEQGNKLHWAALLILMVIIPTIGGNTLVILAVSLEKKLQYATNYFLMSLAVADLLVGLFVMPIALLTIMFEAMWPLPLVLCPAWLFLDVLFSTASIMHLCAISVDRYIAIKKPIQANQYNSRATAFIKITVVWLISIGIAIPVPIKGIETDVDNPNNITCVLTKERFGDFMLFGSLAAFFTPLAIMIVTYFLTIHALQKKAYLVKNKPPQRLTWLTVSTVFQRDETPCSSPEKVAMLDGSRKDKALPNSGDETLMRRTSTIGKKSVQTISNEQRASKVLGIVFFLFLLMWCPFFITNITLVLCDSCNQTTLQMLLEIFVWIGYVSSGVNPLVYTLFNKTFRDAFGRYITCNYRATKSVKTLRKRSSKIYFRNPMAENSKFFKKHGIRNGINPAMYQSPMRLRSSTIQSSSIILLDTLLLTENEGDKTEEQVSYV
Measured metric: EC50 (µM)
Note: unit µM is implicit; provide only the numeric part.

Req: Report EC50, nothing else, for this molecule: CNC(C)Cc1ccc2ccsc2c1 (stereo not shown) [drawing 522]
Resp: 0.072
